Tested on: HT29 colon
Test: NCI-60 one-dose screen, 48 h (100 = growth as untreated, 0 = no growth, -100 = all killed)
Conditions: 10 µM unless noted
This is part of a sample that, as a whole, favours compounds with a hit. Of some 83,000 tested, about 20% had one in any assay.
Binary label based on growth with cut-off 60%: below gives Fulfilled, not below gives Not fulfilled.

CHEM_SMILES	ASSAY_SYSTEM	GROUP
COc1ccc2nc(NC(=O)CSc3nnc4n3S(=O)(=O)c3ccccc3N4c3ccccc3)sc2c1	HT29 colon	Not fulfilled
CCN1CCN(c2nc(NCCNc3ccnc4cc(Cl)ccc34)c3ccccc3n2)CC1	HT29 colon	Fulfilled
Cn1c(=O)c2c(nc3n(-c4ccc(Cl)cc4Cl)c(Sc4nc(-c5ccccc5)c(C#N)c(=O)[nH]4)cn23)n(C)c1=O	HT29 colon	Fulfilled
CC/C=C\C[C@H]1C/C=C2/C(=O)C=C[C@H]2C/C=C\CCCC(=O)O1	HT29 colon	Fulfilled
CN(C)c1ccc(NC(=O)c2ccc(/C=C/C(=O)c3ncc[nH]3)cc2)cc1	HT29 colon	Fulfilled
CC(C)(C)c1cc(/C=N\NC(=O)/C=C/C=C/c2ccc3c(c2)OCO3)c(O)c(C(C)(C)C)c1	HT29 colon	Not fulfilled
CCCN1CCN(c2ccc3nc(-c4ccc5nc(-c6ccc(OCC)cc6)[nH]c5c4)[nH]c3c2)CC1	HT29 colon	Fulfilled
CN(C)c1ccc(N=Nc2ccc(Br)cn2)c(O)c1	HT29 colon	Fulfilled
C=CC(=O)Nc1cccc(-c2nc(SC)nc(NCCN3CCOCC3)c2C#N)c1	HT29 colon	Not fulfilled

----------
Reported growth is given for each of the following molecules.
Tested on: NCI/ADR-RES ovarian
Assay: NCI-60 one-dose screen, 48 h (100 = growth as untreated, 0 = no growth, -100 = all killed)
Settings: 10 µM unless noted
Compounds without any hit were thinned out: in the full panel of roughly 83,000, 20% have a hit. Calls of active or inactive are those of the source. The calls were made as follows: active = growth percent below 10; inactive = the rest.
PROPERTY_NAME: growth

MOLECULE	REPORTED_RESULT
CC(C)C[C@@H](NC(=O)[C@@H](Cc1ccccc1)NC(=O)c1cnccn1)B1Oc2ccc(C[C@H](NC(=O)[C@H](Cc3ccc4c(c3)OB([C@@H](CC(C)C)NC(=O)[C@@H](Cc3ccccc3)NC(=O)c3cnccn3)O4)NC(=O)[C@@H](N)CC3CCC4OB([C@@H](CC(C)C)NC(=O)[C@@H](CC5CCCCC5)NC(=O)C5CNCCN5)OC4C3)C(=O)NCCCC[C@@H]3NC(=O)[C@@H](Cc4ccccc4)NC(=O)[C@H](CC(=O)O)NC(=O)CNC(=O)[C@H](CCCNC(=N)N)NC3=O)cc2O1 (stereo not given in full)	-8.71% (active)
C=CC(=O)Nc1cccc(-c2nc(SC)nc(NCCN3CCOCC3)c2C#N)c1	95% (inactive)
COc1cc(-c2nc(C(=O)NCC(=O)NO)nn2-c2ccc(Cl)cc2)cc(OC)c1OC	106% (inactive)
N#Cc1c(-c2ccc(Cl)cc2)nc(N/N=C/c2cccc(Br)c2)nc1N1CCOCC1	90.6% (inactive)
COc1ccc(C(=O)c2sc3nc4c(c(-c5cccnc5)c3c2N)CCCC4)cc1OC	89.3% (inactive)
COc1ccc(/C=C\c2cc(OC)c(OC)c(OC)c2)cc1OC(=O)c1cccc(Cn2cc(CCOC(=O)[C@H](N)Cc3cn(C)c4ccccc34)nn2)c1	6.28% (active)
COc1cc(C(=O)Oc2ccccc2OC(=O)c2cc(OC)c(OC)c(OC)c2)cc(OC)c1OC	95.7% (inactive)
O=S(=O)(Nc1ccc(OC(F)F)cc1)c1ccc(-c2cnc(C3CC3)o2)cc1	41.5% (inactive)
O=C1/C(=C/c2ccc(Cl)cc2)SC(=S)N1CCc1ccc(O)cc1	98.5% (inactive)
CN1CCN(c2nc(NCCCCNc3ccnc4cc(Cl)ccc34)c3ccccc3n2)CC1	95.3% (inactive)
CSc1nc(Nc2cccc(NC(=O)/C(C#N)=C/c3c(Cl)cccc3Cl)c2)c(C#N)c(-c2cccc([N+](=O)[O-])c2)n1	60.5% (inactive)
Cn1c(NCCc2ccc(O)c(O)c2)nc2c1c(=O)n(Cc1ccc(Cl)c(Cl)c1)c(=O)n2C	77.3% (inactive)
COc1ccc(/C=C\c2cc(OC)c(OC)c(OC)c2)cc1OCC(=O)Nc1ccc2nc(C)sc2c1	0.808% (active)
COc1cc2c(cc1O)CC[C@@H]1[C@@H]2CC[C@]2(C)[C@@H](OCCN(C)C)CC[C@@H]12	17.9% (inactive)
O=C(CN1C(=O)/C(=C/c2ccc(Cl)cc2)SC1=S)NCCCN1CCOCC1	99.9% (inactive)

----------
Tested on: UACC-257 melanoma
Assay: NCI-60 one-dose screen, 48 h (100 = growth as untreated, 0 = no growth, -100 = all killed)
Conditions: 10 µM unless noted
Compounds without any hit were thinned out: in the full panel of roughly 83,000, 20% have a hit.
PROPERTY_NAME: growth (%)

CHEM_SMILES	MEASUREMENT_UNIT	REPORTED_RESULT
COc1cccc(-c2nc3sccn3c2-c2ccnc(NCCNS(=O)(=O)c3ccc(F)cc3)c2)c1	%	40
COc1ccc(S(=O)(=O)N2CCCCC2)cc1NC(=O)c1[nH]c(C)c2c1CCCCC2=O	%	32
COc1ccc(/C=C2\Oc3cc(OCCCCN4CCCC4)ccc3C2=O)cc1	%	96.9
CCOc1nc(-c2ccccc2)cc2c(O)c(C(=O)O)[nH]c(=O)c12	%	60.7
COc1ccc(-c2nc3ccc(-c4nc5ccc(N6CCN(C)CC6)cc5[nH]4)cc3[nH]2)cc1OC	%	25.2
COc1cc2nc(N3CCCC3)nc(NCCc3ccccc3)c2cc1OC	%	115
O=c1c2c3c(sc2nc(N/N=C/c2cn(-c4ccccc4)nc2-c2ccc(Cl)cc2)n1Cc1ccccc1)CCCC3	%	92
O=C(N=Nc1c(O)[nH]c2ccccc12)c1cc(-c2ccccc2)on1	%	106
O=C1/C(=C/C(Cl)=C/c2ccccc2)SC(=S)N1CCc1ccc(O)cc1	%	17.4

----------
Tested on: IGROV1 ovarian
Experiment: NCI-60 one-dose screen, 48 h
Conditions: 10 µM unless noted
Compounds without any hit were thinned out: in the full panel of roughly 83,000, 20% have a hit. The source made the active and inactive calls. The calls were made as follows: active = growth percent below 10; inactive = the rest.
Outcomes: label 1 = active, label 0 = inactive

CHEM_SMILES	GROUP
COC[C@H](C)n1c(C2CCOCC2)nc2cnc3cc(-c4c(C)noc4C)c(OC)cc3c21	label 0
COc1cccc(-c2nn(C(C)(C)C)cc2-c2ccnc(NCCCNS(=O)(=O)c3ccc(C)cc3)c2)c1	label 0
C#CCOc1ccc2ncnc(Nc3cccc(CNC(=O)CCl)c3)c2c1	label 1
COc1cc2c(cc1-c1c(C)noc1C)ncc1nc(C3CCCCC3)n([C@H](C)COC(F)F)c12	label 0
CCc1nnc(CNc2ccc(Cl)cc2)o1	label 0

----------
Tested on: BT-549 breast
Assay: NCI-60 one-dose screen, 48 h
Conditions: 10 µM unless noted
This is part of a sample that, as a whole, favours compounds with a hit. Of some 83,000 tested, about 20% had one in any assay. Calls of active or inactive are those of the source. How the source made its calls: active means growth percent below 10; inactive means the rest.
Labels: yes = active, no = inactive

COMPOUND	GROUP
Oc1ccc(N=Cc2ccccc2O)cc1	no
CCC(=O)c1ccc(Cl)s1	no
O=C(N(c1ccccc1)c1ccccc1)n1ccc2nc(Cl)nc(Cl)c21	no
Cc1cc(C)nc(SC2=C(Nc3cccc(Cl)c3)C(=O)N(Cc3ccccc3)C2=O)n1	no
Cn1cccc1-c1nc2c3c(ccc2[nH]1)C(=O)c1ccccc1C3=O	no
O=c1nc2oc3ccc4ccccc4c3cc-2s1	no
CCCCC[C@H]1C/C=C2/C(=O)C=C[C@@H]2C/C=C\CCCC(=O)O1	yes
COc1cccc2c1C(=O)c1c(O)c3c(c(O)c1C2=O)C[C@](O)(C(=O)CO)C[C@H]3O[C@@H]1C[C@@H](NC(=O)CCCCCN(C)C2(c3ccc(F)cc3)CC3CCC2C3)[C@H](O)[C@@H](C)O1 (stereo not given in full)	no
COc1cc(C(=O)Oc2ccccc2OC(=O)c2cc(OC)c(OC)c(OC)c2)cc(OC)c1OC	no
COc1ccc(NC(=O)c2ccc(/C=C/C(=O)c3ncc[nH]3)cc2)cc1	no
COCCNc1ccc2c3c(cccc13)C(=O)N(CCN(C)C)C2=O	no
C=CC(=O)Nc1cccc(-c2nc(SC)nc(Nc3ccccc3OC)c2C#N)c1	no
CC(=O)OC[C@H]1O[C@H](OC(C)=O)[C@H](NC(=O)/C=C/CCl)[C@@H](OC(C)=O)[C@@H]1OC(C)=O	no
OC(c1cc2cc(Cl)c(Cl)cc2c2cc(C(F)(F)F)ccc12)C1CCCCN1 (stereo not given)	no
CCOc1nc(-c2ccccc2)cc2c(O)c(C(=O)O)[nH]c(=O)c12	no
Cc1cc2c3ccccc3ccc2[n+]2ccccc12	yes
N#Cc1c(N)n(CCNC(=O)c2ccccc2)c2nc3ccccc3nc12	no
O=C1/C(=C/c2ccccc2O)N=C2SCCCN12	no
O=C1NC(=O)C(c2ccc(Cl)cc2Cl)N1 (stereo not given)	no
Cc1cn2c(/C=C3/C(=O)Nc4c3ccc3ccccc43)c(C(F)(F)F)nc2s1	no
O=C(Nc1ccccc1Cl)c1ccc(NC2=C(Cl)C(=O)N(C3CCCCC3)C2=O)cc1	no
COc1ccc(SC2c3ccc(C)cc3Oc3nc(N)c(C#N)c(N)c32)cc1 (stereo not given)	yes
Cc1ccc2oc(=O)cc(C3c4ccc([nH]4)C(c4cc(=O)oc5ccc(C)cc45)c4ccc([nH]4)C(c4cc(=O)oc5ccc(C)cc45)c4ccc([nH]4)C(c4cc(=O)oc5ccc(C)cc45)c4ccc3[nH]4)c2c1 (stereo not given)	yes
CCN(CC)c1ccc(-c2cc(-c3cc(OC)c(OC)c(OC)c3)nc(N3CCOCC3)c2C#N)cc1	no
Cc1ccc2c(C(C[N+](=O)[O-])c3ccccc3F)c(-c3ccccc3)[nH]c2c1 (stereo not given)	no
Clc1ccc2c(NCCNc3nc(N4CCCCC4)nc4ccccc34)ccnc2c1	no
CCN(CC)c1ccc2c(c1)Oc1nc(N)c(C#N)c(N)c1C2Sc1ccc(SC)cc1 (stereo not given)	yes
COc1ccc(-c2cc(-c3ccc(Nc4ccnc5cc(Cl)ccc45)cc3)nc(N3CCOCC3)n2)cc1	no
NC(=NCCCC1(c2ccccc2)CCCC1)Nc1ccc(Cl)cc1	no
COc1cc(-c2nn(-c3ccc(Br)cc3)cc2C(=O)O)ccc1O	no
O=C(COc1ccc(/C=C2\COc3ccccc3C2=O)cc1)Nc1nccs1	yes
CCc1nnc(CNc2ccc(Cl)cc2)o1	no
O=S(=O)(Nc1ccc(Cl)c(F)c1)c1ccc(-c2cnc(C3CC3)o2)cc1	no
COc1cccc(-c2nc3sccn3c2-c2ccnc(NCCNS(=O)(=O)c3ccccc3)c2)c1	yes
OCc1ccc(N2CCc3cccc(F)c3C2)cc1Cl	no
C=C1c2nc3ccccc3n2C=C(c2cccc(Cl)c2)N1Cc1ccc(OC)cc1	yes
CN1CCN(c2ccc3nc(-c4ccc(OCCCCN5CCN(CCCCN6C(=O)c7cccc8cccc(c78)C6=O)CC5)cc4)[nH]c3c2)CC1	no
COc1ccc(N=Nc2nccs2)c(O)c1	no
O=C(COc1cccc(/C=C2\CSc3ccccc3C2=O)c1)Nc1nccs1	yes
CCN1CCN(c2nc(NCCNc3ccnc4cc(Cl)ccc34)c3ccccc3n2)CC1	no
